- Tested on: NCI-H460
- TEST DESCRIPTION: Antiproliferative activity against human NCI-H460 cells after 48 hrs by propidium iodide fluorescence assay
- Type: functional, cell-based
- CONDITION PARAMETERS: NCI-H460, 48 h
MEASUREMENT TYPE: IC50 (µM)

Field: example entries. Status: answers known.
{"TEST SMILES": "COc1ccc2nc3sc(C(=O)Nc4ccc(C(=O)/C=C/c5ccc(OC)c(OC)c5)cc4)cc3cc2c1", "IC50 (µM)": 0.2}
{"TEST SMILES": "O=C(/C=C/c1ccc(Cl)cc1)c1ccc(NC(=O)c2cc3cc4ccccc4nc3s2)cc1", "IC50 (µM)": 6.7}
{"TEST SMILES": "COc1cc(/C=C/C(=O)c2ccc(NC(=O)c3cc4cc5ccccc5nc4s3)cc2)cc(OC)c1OC", "IC50 (µM)": 2.7}
{"TEST SMILES": "COc1cccc(/C=C/C(=O)c2ccc(NC(=O)c3cc4cc5cc(C)ccc5nc4s3)cc2)c1", "IC50 (µM)": 3.6}
{"TEST SMILES": "COc1cccc(/C=C/C(=O)c2ccc(NC(=O)c3cc4cc5cc(OC)ccc5nc4s3)cc2)c1", "IC50 (µM)": 5.5}

I. COc1ccc2nc3sc(C(=O)Nc4ccc(C(=O)/C=C/c5ccccc5)cc4)cc3cc2c1
II. COc1cc(/C=C/C(=O)c2ccc(NC(=O)c3cc4cc5cc(C)ccc5nc4s3)cc2)cc(OC)c1OC
III. COc1ccc2nc3sc(C(=O)Nc4ccc(C(=O)/C=C/c5ccc(Cl)cc5)cc4)cc3cc2c1
IV. COc1ccc(/C=C/C(=O)c2ccc(NC(=O)c3cc4cc5ccccc5nc4s3)cc2)cc1OC
# rank_down: sort by IC50, max first Write the labels, ordered according to the request.
III, I, II, IV
